# Tested on: NCI-H23 lung
# assay_procedure: NCI tumour cell line growth inhibition, 48 h; in the data active = GI50 below about 0.43 µM; inactive = the rest
Your response should consist of one outcome taken from Y for active, N for inactive

Solved entries (count: 8):
Identify the outcome logged in this assay for the molecule shown: O=C(c1ccco1)c1nc2cc(C(F)(F)F)ccc2[n+]([O-])c1C(F)(F)F
N

# outcome recorded in this test, key = C=C(C)[C@@H]1CC[C@]2(C(=O)O)CC[C@]3(C)[C@H](CC[C@@H]4[C@@]5(C)C/C(=C/c6cccc(I)c6)C(=O)C(C)(C)[C@@H]5CC[C@]43C)[C@@H]12
N

Name the outcome recorded for O=C1CC(c2ccsc2)c2snc(-c3ccc(Cl)cc3)c2N1 (centres undefined) in the assay.
N

Which outcome was entered for the molecule O=C(Cc1csc2nc(-c3ccc(Br)cc3)cn12)N/N=C/c1ccc(Cl)cc1Cl in this test?
N

Record request — test call for Nc1nc(-c2ccc(Cl)cc2)cc(-c2ccc(Cl)cc2)c1-c1nc2ccccc2o1
N

Which outcome was assigned to CNC(=O)c1cc(Oc2ccc3nc(N[C@@H]4CCCC[C@H]4O)sc3c2)ccn1 in this test?
N

Kindly provide the recorded test outcome for the following molecule: Cc1ccc2nc3c(n2c1)C(=O)C(=O)c1ccccc1-3
Y

So what was the verdict on COc1ccc(-c2nc(-c3ccccn3)c(-c3ccccn3)n2CC(C)C)cc1OC1CCCC1 in this test?
N

***
Recorded call for OCCn1cc(-c2cnc3nnn(Cc4ccc5ncccc5c4)c3n2)cn1 ?
N

// outcome(item) with item = CCSc1ccc([C@@H]2[C@@H](N)C(=O)N2c2cc(OC)c(OC)c(OC)c2)cc1
N

// param item: COc1ccc(-n2cc(-c3cc(OC)c(OC)c(OC)c3)[nH]c2=S)cc1Cl ; yields the recorded call
N

Can you look up the reported call for Clc1ccc2nc(Cl)c3ccccc3c2c1 for me?
N
